All values here come from patent US20250197490A1.

Molecular target: T1, corticotropin-releasing hormone (CRH) peptide (human and mouse, UniProt P01143 145-185 (rat entry), not fully specified)
T1 peptide: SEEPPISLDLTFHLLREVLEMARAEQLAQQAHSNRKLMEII
Assay: cell-based or functional assay
outcome.measure: hCRHR1-Luc 0.5 nM CRH IC50
Give the figure together with its unit, number first.

Query :: Give hCRHR1-Luc 0.5 nM CRH IC50 for PR302309-16 (antibody, human IgG1, kappa, V domains shown) VH: QIQLVQSGAEVKKPGASVKVSCKASGYTFTNYGMNWVRQAPGQRLEWMGWINTYTGEPIYTDDFKGRVTITLDTSASTAYMELSSLRSEDTAVYYCSRSTMITTGGVFAYWGQGTLVTVSS VL: DVLMAQTPLSLPVSLGDQASISCRSSQTIVHSDGNTYLEWYLQKPGQSPKLLIYKVSNRFSGVPDRFSGSGSGTDFTLKISRVEAEDLGVYYCFQGSHVPWTFGGGTKLEIKR
Result :: 5.47 nM

Query :: Give hCRHR1-Luc 0.5 nM CRH IC50 for PR302309-4 (antibody, human IgG1, kappa, V domains shown) VH: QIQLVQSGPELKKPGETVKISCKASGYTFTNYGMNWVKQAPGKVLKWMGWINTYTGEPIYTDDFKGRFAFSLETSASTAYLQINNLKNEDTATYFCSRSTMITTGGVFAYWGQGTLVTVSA VL: DVVMTQTPLSLSVTPGQPASISCRSSQTIVHSDGNTYLEWYLQKPGQSPQLLIYKVSNRFSGVPDRFSGSGSGTDFTLKISRVEAEDLGVYYCFQGSHVPWTFGGGTKVEIKR
Result :: 1.26 nM

Query :: Give hCRHR1-Luc 0.5 nM CRH IC50 for PR302309-10 (antibody, human IgG1, kappa, V domains shown) VH: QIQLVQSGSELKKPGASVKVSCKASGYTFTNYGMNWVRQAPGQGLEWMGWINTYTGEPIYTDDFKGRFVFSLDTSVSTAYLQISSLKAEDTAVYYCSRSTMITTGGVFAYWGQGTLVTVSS VL: DVVMTQTPLSLSVTPGQPASISCRSSQTIVHSDGNTYLEWYLQKPGQSPQLLIYKVSNRFSGVPDRFSGSGSGTDFTLKISRVEAEDLGVYYCFQGSHVPWTFGGGTKVEIKR
Result :: 3.2 nM

Query :: Give hCRHR1-Luc 0.5 nM CRH IC50 for PR302309-9 (antibody, human IgG1, kappa, V domains shown) VH: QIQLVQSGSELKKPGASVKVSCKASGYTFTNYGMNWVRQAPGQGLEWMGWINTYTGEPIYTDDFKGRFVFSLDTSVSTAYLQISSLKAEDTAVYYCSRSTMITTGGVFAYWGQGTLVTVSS VL: DIVMTQTPLSLSVTPGQPASISCRSSQTIVHSDGNTYLEWYLQKPGQSPQLLIYKVSNRFSGVPDRFSGSGSGTDFTLKISRVEAEDVGVYYCFQGSHVPWTFGGGTKVEIKR
Result :: 6.08 nM

Query :: Give hCRHR1-Luc 0.5 nM CRH IC50 for PR302309-11 (antibody, human IgG1, kappa, V domains shown) VH: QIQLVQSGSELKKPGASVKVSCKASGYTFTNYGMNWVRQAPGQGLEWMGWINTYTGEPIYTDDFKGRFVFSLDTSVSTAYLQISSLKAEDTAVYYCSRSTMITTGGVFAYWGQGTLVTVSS VL: DIVMTQTPLSSPVTLGQPASISCRSSQTIVHSDGNTYLEWLQQRPGQPPRLLIYKVSNRFSGVPDRFSGSGAGTDFTLKISRVEAEDVGVYYCFQGSHVPWTFGGGTKVEIKR
Result :: 2.12 nM
